target: Acetylcholinesterase (Electrophorus electricus); experiment: Inhibition of Electrophorus electricus Type V-S acetylcholinesterase using […] as substrate by spectrophotometric Ellman's assay
Sequence (O42275 whole entry): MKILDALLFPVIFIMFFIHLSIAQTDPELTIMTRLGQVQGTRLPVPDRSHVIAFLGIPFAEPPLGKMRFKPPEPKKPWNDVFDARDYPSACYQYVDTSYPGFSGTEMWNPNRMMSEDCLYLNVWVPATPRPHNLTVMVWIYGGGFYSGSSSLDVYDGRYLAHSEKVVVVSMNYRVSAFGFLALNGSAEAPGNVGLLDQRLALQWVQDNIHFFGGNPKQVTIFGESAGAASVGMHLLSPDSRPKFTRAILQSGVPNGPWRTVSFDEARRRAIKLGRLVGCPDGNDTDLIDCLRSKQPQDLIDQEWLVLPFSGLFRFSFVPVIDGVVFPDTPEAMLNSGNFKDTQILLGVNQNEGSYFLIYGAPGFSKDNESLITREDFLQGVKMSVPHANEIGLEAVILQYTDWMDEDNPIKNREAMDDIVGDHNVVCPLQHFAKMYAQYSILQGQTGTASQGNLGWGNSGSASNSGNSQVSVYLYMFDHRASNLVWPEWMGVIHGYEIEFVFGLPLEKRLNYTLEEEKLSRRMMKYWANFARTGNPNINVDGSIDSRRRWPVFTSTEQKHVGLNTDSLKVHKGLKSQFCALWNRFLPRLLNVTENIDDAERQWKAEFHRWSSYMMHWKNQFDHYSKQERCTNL
Recorded Metric: pKi
Units for pKi: none; it is -log10 of a concentration expressed in mol/L.

Worked set:
{"Substance Smiles": "CC(C)C(=O)Oc1ccc(COC(=O)Nc2ccncc2N)cc1", "System": "Acetylcholinesterase (Electrophorus electricus)", "pKi": 5.41}
{"Substance Smiles": "CC(=O)Nc1ccncc1N", "System": "Acetylcholinesterase (Electrophorus electricus)", "pKi": 4.49}
{"Substance Smiles": "CC(=O)Oc1ccc(COC(=O)Nc2ccncc2N)cc1", "System": "Acetylcholinesterase (Electrophorus electricus)", "pKi": 4.96}
{"Substance Smiles": "CC(C)CC(=O)Oc1ccc(COC(=O)Nc2ccncc2N)cc1", "System": "Acetylcholinesterase (Electrophorus electricus)", "pKi": 4.26}
{"Substance Smiles": "CCC(=O)Oc1ccc(COC(=O)Nc2ccncc2N)cc1", "System": "Acetylcholinesterase (Electrophorus electricus)", "pKi": 5.24}

I'm curious: which pKi was measured for `CCCC(=O)Oc1ccc(COC(=O)Nc2ccncc2N)cc1` tested on Acetylcholinesterase (Electrophorus electricus)?
4.92

Write down the reported pKi of `CC(C)OC(=O)CCC(=O)Nc1ccncc1N` , test system: Acetylcholinesterase (Electrophorus electricus).
5.49

###

biological target: Butyrylcholinesterase (Equus caballus, UniProt Q9N1N9); assay: Inhibition of equine serum BChE using butyrylthiocholine iodide as a substrate by spectrophotometric Ellman's assay
Sequence (Q9N1N9 whole entry): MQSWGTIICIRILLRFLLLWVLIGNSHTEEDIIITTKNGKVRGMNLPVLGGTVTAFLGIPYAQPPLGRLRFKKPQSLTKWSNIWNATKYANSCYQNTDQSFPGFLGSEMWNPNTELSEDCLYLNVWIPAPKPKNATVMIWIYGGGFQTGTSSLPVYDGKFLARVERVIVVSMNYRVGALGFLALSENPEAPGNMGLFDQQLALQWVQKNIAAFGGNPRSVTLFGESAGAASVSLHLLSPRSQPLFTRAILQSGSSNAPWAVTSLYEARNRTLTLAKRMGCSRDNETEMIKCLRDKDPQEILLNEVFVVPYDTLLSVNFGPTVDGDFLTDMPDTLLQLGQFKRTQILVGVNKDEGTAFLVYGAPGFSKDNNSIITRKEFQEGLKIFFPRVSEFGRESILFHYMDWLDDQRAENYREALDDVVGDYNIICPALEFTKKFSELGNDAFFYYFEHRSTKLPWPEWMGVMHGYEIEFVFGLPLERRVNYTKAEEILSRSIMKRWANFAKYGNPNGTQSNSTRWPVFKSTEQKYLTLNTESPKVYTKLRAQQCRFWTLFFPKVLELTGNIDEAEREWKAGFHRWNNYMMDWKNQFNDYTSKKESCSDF
pIC50: −log10 of the molar value.
Rule: pIC50 of 4 or more gives yes (1); anything lower gives no (0).

{"Substance Smiles": "Nc1cnccc1NC(=O)c1ccccc1", "Category Label": "no (0)"}
{"Substance Smiles": "CC(=O)Nc1ccncc1NC(C)=O", "Category Label": "no (0)"}

Now for another entry.
In plain terms: is recorded pIC50 at least 4 for `CC(=O)Oc1ccc(COC(=O)Nc2ccncc2N)cc1` ?
yes (1)

###

test: Half life in iv dosed mouse; type: ADME, organism-based; settings: in vivo
Reported half-life by item:
Response body: numeric value in min, unit text excluded.

{"Substance Smiles": "Nc1cncc(N)c1N", "Measure Unit": "min", "half-life": 18.6}

Recorded half-life for `C#CC[n+]1ccc(N)c(N)c1` , please?
72

###

The compounds listed here are annotated with their IC50.
target: Butyrylcholinesterase (Equus caballus, UniProt Q9N1N9); experiment: Inhibition of equine serum BChE using butyrylthiocholine iodide as a substrate by spectrophotometric Ellman's assay

{"Substance Smiles": "COc1cccc(C(=O)Oc2ccc(COC(=O)Nc3ccncc3N)cc2)c1", "System": "Butyrylcholinesterase (Equus caballus, UniProt Q9N1N9)", "IC50": "61.7 µM"}
{"Substance Smiles": "CC(C)C(=O)OCCOC(=O)Nc1ccncc1N", "System": "Butyrylcholinesterase (Equus caballus, UniProt Q9N1N9)", "IC50": "61.9 µM"}
{"Substance Smiles": "CC(C)C(=O)OCc1ccccc1COC(=O)Nc1ccncc1N", "System": "Butyrylcholinesterase (Equus caballus, UniProt Q9N1N9)", "IC50": "> 500 µM"}

Looking for the measured IC50 of `COC(=O)Nc1ccncc1N` , can you help?
491 µM

Item `Nc1cnccc1NC(=O)OCc1ccc(OC(=O)c2ccccc2)cc1` has what recorded IC50?
392 µM

Look up IC50 for this compound: `CCCC(=O)Oc1ccc(COC(=O)Nc2ccncc2N)cc1`
111 µM

# lookup: IC50 of `CCC(=O)Oc1ccc(COC(=O)Nc2ccncc2N)cc1`
129 µM

Consider the compound `COC(=O)Nc1cnccc1N` and give its measured IC50.
> 500 µM

Data request, read-out IC50, for `CC(C)C(=O)Oc1ccc(COC(=O)Nc2ccncc2N)cc1`
122 µM

# lookup: IC50 of `COC(=O)Nc1ccncc1NC(=O)OC`
417 µM

IC50 for `CC(=O)Nc1ccncc1N` ?
> 500 µM

State the recorded IC50 for this entry: `Nc1cnccc1NC(=O)OCc1ccc(OC(=O)Cc2ccccc2)cc1`
32.2 µM

Quick check: IC50 of `Nc1cnccc1NC(=O)C1CCCC1` ?
> 500 µM
